Hello, the source for this data is patent US20180206495A1, in case you need it.

# Test system: Brassica napus
# test-protocol: In vivo analyses Part B: drought stress, spray application, appearance vs stressed control in categories, Brassica napus
# Set-up: key: 0: no positive effect; +: slight positive effect; ++: clear positive effect; +++: strong positive effect
# measurement-context: dosage 250 g/ha
measured-metric: Effect (BRSNS)

>>> test_value("CN(C)N(Cc1cccnc1C#N)C(=O)c1ccccc1Cl [A10-679]")
"++"
>>> test_value("CN(C)N(Cc1cccnc1C#N)C(=O)c1cnccc1C(F)(F)F [B1-679]")
"++"
>>> test_value("CN(C)N(Cc1ccccn1)C(=O)c1ccc(C(F)(F)F)nc1 [B5-21]")
"+"
>>> test_value("CN(C)N(Cc1c(F)cccc1F)C(=O)c1cnccc1C(F)(F)F [B1-17]")
"++"
>>> test_value("CN(C)N(Cc1ncccn1)C(=O)c1ccccc1C(F)(F)F [A1-27]")
"++"
>>> test_value("CN(C)N(Cc1ccccc1C#N)C(=O)c1ccccc1I [A36-61]")
"+"
>>> test_value("CN(C)N(Cc1ccc(Cl)cc1Cl)C(=O)c1cnccc1C(F)(F)F [B1-5]")
"+++"
>>> test_value("CCN(C)N(Cc1ccccc1C#N)C(=O)c1cnccc1C(F)(F)F [B17-61]")
"+"

Ask: State the recorded Effect (BRSNS) for this entry: CN(C)N(Cc1c(Cl)c(Cl)c(C(F)(F)F)c(Cl)c1Cl)C(=O)c1ccc(F)cc1C(F)(F)F [A14-680]
Reply: ++

---

# Test system: Brassica napus
# test-protocol: In vivo analyses Part B: drought stress, spray application, appearance vs stressed control in categories, Brassica napus
# Set-up: key: 0: no positive effect; +: slight positive effect; ++: clear positive effect; +++: strong positive effect
# measurement-context: dosage 250 g/ha
measured-metric: Effect (BRSNS)

Field: example entries. Status: answers known.
>>> test_value("CN(C)N(Cc1ccc(F)cc1F)C(=O)c1cnccc1C(F)(F)F")
"+++"
>>> test_value("CN(C)N(Cc1nccc(Cl)c1Cl)C(=O)c1cnccc1C(F)(F)F")
"+"
>>> test_value("CN(C)N(Cc1ccc(Cl)nc1)C(=O)c1ccc(C(F)F)nc1")
"+"
>>> test_value("CN(C)N(Cc1ccc(C#N)cc1)C(=O)c1cnccc1C(F)(F)F")
"+++"
>>> test_value("CN(C)N(Cc1cccc(C#N)c1)C(=O)c1cnccc1C(F)(F)F")
"++"

Ask: State the recorded Effect (BRSNS) for this entry: CN(C)N(Cc1ccc(Cl)nc1)C(=O)c1ccccc1Cl
Reply: +

Ask: State the recorded Effect (BRSNS) for this entry: CN(C)N(Cc1ccccc1Cl)C(=O)c1ccccc1I
Reply: +

Ask: State the recorded Effect (BRSNS) for this entry: COc1ccccc1C(=O)N(Cc1ccc(F)cc1F)N(C)C
Reply: +

Ask: State the recorded Effect (BRSNS) for this entry: CN(C)N(Cc1ccc(C(F)(F)F)cc1Cl)C(=O)c1ccc(F)cc1C(F)(F)F
Reply: +

Ask: State the recorded Effect (BRSNS) for this entry: CN(C)N(Cc1ncccn1)C(=O)c1ccccc1I
Reply: +

Ask: State the recorded Effect (BRSNS) for this entry: CN(C)N(Cc1ccc(Cl)cc1Cl)C(=O)c1ccccc1I
Reply: ++

Ask: State the recorded Effect (BRSNS) for this entry: CN(C)N(Cc1c(F)cccc1F)C(=O)c1ccccc1Cl
Reply: +
